- System: PC3-PIP tumor model
- Set-up: species or system mice
- Condition Context: mouse, in vivo
Numbered stars: 1 amine (or outer) side, 2 acyl side, 3 side chain; on linkers, the order of the positions; unused ones are H or OH. Bridge positions count the residues as written; N and C are the ends. Square brackets hold non-standard residues; d marks the D form. Side chains are listed from the residue outwards. Peptide text beside a SMILES is read from it. * marks the point of attachment. X3 = O=C(O)CN1CCN(CC(=O)O)CCN(CC(=O)NCCCOCCOCCOCCCN*)CCN(CC(=O)O)CC1; DOTA = O=C(O)CN1CCN(CC(=O)O)CCN(CC(=O)*)CCN(CC(=O)O)CC1; Phe(4-Cl) = N[C@@H](Cc1ccc(Cl)cc1)C(=O)O; Ethylenediamine = C(CN[*:2])N[*:1]; X1 = O=C(CC1CCN([*:1])CC1)[*:2]; Cit = NC(=O)NCCC[C@H](N)C(=O)O; Suc = O=C(CCC(=O)[*:2])[*:1]; Tle = CC(C)(C)[C@H](N)C(=O)O; Aib = CC(C)(N)C(=O)O; CO = O=C([*:1])[*:2]
The reader will find reported Tumor AUC values listed item by item below.

Some solved cases for reference:
C[C@@H](O)[C@H](NC(=O)[C@@H](NC(=O)[C@@H]1CSSC[C@H](NC(=O)[C@H](Cc2ccccc2)NC(=O)C(C)(C)NC(=O)[C@@H](NC(=O)CN2CCN(CC(=O)O)CCN(CC(=O)O)CCN(CC(=O)O)CC2)[C@@H](C)O)C(=O)N[C@@H](CCCCN)C(=O)N[C@@H](CCCNC(=N)N)C(=O)NC(C)(C)C(=O)N[C@@H](CC(N)=O)C(=O)N1)C(C)(C)C)C(N)=O [PSM-0580] ({DOTA}-T[Aib]FCKR[Aib]NC[Tle]T-NH2; disulfide 4-9)	110 % ID/g*h
C[C@@H](O)[C@H](NC(=O)[C@@H](NC(=O)[C@@H]1CSSC[C@H](NC(=O)[C@H](Cc2ccccc2)NC(=O)C(C)(C)NC(=O)[C@@H](NC(=O)CCC(=O)NCCCOCCOCCOCCCNC(=O)CN2CCN(CC(=O)O)CCN(CC(=O)O)CCN(CC(=O)O)CC2)[C@@H](C)O)C(=O)N[C@@H](CCCCN)C(=O)N[C@@H](CCCNC(N)=O)C(=O)NC(C)(C)C(=O)N[C@@H](CC(N)=O)C(=O)N1)C(C)(C)C)C(N)=O [PSM-0234] ({X3-Suc}-T[Aib]FCK[Cit][Aib]NC[Tle]T-NH2; disulfide 4-9)	62 % ID/g*h
C[C@@H](O)[C@H](NC(=O)CC1CCN(C(=O)CN2CCN(CC(=O)O)CCN(CC(=O)O)CCN(CC(=O)O)CC2)CC1)C(=O)NC(C)(C)C(=O)N[C@@H](Cc1ccc(Cl)cc1)C(=O)N[C@H]1CSSC[C@@H](C(=O)N[C@H](C(N)=O)C(C)(C)C)NC(=O)[C@H](CC(N)=O)NC(=O)C(C)(C)NC(=O)[C@H](CCCNC(=N)N)NC(=O)[C@H](CCCCN)NC1=O [PSM-0433] ({DOTA}-[X1]T[Aib][Phe(4-Cl)]CKR[Aib]NC[Tle]-NH2; disulfide 5-10)	270 % ID/g*h
CCNC(=O)NC(=N)NCCC[C@@H]1NC(=O)[C@H](CCCCN)NC(=O)[C@@H](NC(=O)[C@H](Cc2ccc(Cl)cc2)NC(=O)C(C)(C)NC(=O)[C@@H](NC(=O)CC2CCN(C(=O)CN3CCN(CC(=O)O)CCN(CC(=O)O)CCN(CC(=O)O)CC3)CC2)[C@@H](C)O)CSSC[C@@H](C(=O)N[C@H](C(=O)N[C@H](C(N)=O)[C@@H](C)O)C(C)(C)C)NC(=O)[C@H](CC(N)=O)NC(=O)C(C)(C)NC1=O [PSM-0579] ({DOTA}-[X1]T[Aib][Phe(4-Cl)]CKR([CO-NHEt])[Aib]NC[Tle]T-NH2; disulfide 5-10)	110 % ID/g*h

Here's the next entry for you.
Lookup: Name the reported Tumor AUC value associated with the compound CC(=O)N[C@H](C(=O)NC(C)(C)C(=O)N[C@@H](Cc1ccc(Cl)cc1)C(=O)N[C@H]1CSSC[C@@H](C(=O)N[C@H](C(=O)NCCNC(=O)CN2CCN(CC(=O)O)CCN(CC(=O)O)CCN(CC(=O)O)CC2)C(C)(C)C)NC(=O)[C@H](CC(N)=O)NC(=O)C(C)(C)NC(=O)[C@H](CCCNC(=N)N)NC(=O)[C@H](CCCCN)NC1=O)[C@@H](C)O [PSM-0269] (Ac-T[Aib][Phe(4-Cl)]CKR[Aib]NC[Tle]-{Ethylenediamine-DOTA}; disulfide 4-9)
Found: 150 % ID/g*h
